# Study System: Cannabinoid receptor 2 (Homo sapiens)
# Sequence (P34972 whole entry): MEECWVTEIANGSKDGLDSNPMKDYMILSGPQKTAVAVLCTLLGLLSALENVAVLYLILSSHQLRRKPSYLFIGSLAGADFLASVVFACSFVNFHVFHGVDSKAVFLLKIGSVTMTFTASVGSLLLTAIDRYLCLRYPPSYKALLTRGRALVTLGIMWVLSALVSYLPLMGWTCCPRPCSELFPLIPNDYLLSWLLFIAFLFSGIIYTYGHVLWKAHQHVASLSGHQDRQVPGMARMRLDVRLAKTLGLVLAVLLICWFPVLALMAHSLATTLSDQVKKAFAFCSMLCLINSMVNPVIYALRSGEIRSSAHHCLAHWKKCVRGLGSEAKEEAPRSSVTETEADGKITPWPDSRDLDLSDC
# Protocol Notes: Displacement of [3H]CP55940 from human recombinant CB2 receptor expressed in HEK293 cells after 90 mins
pIC50: −log10 of the molar value.
Outcome Measure: pIC50

>>> recorded_measurement("C=C(CCCCCCCCCCCCC)CCCC(=O)O/C=C\\COC(C)=O")
"< 5.00"

Please examine the following record next.
IN: If you can, please state the reported pIC50 value of CCCCCCCCCCCCC/C=C/CCC(=O)N(C)[C@H](CO)COC [SERINOLAMIDE A] .
OUT: < 5.00

----------
# Study System: Cannabinoid receptor 2 (Homo sapiens)
# Protocol Notes: Displacement of [3H]CP55940 from human recombinant CB2 receptor expressed in HEK293 cells after 90 mins
Outcome Measure: Ki

IN: I am curious: what Ki value has been reported for CCCCC/C=C\C/C=C\C/C=C\C/C=C\CCCC(=O)N[C@@H](CO)C(=O)O ?
OUT: > 10 µM
